assay: growth suppression of beta-catenin knockout HCT116, pilot screen, human colon tumor cells (AID 823); settings: CellTiter-Glo, 60 h, at 10 µM, stronger effect = lower value;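 note: 0% = wells killed by 20 µM Hyamine and 100% = untreated DMSO cell wells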
Records with an inconclusive call do not appear.
REPORTED PROPERTY: viability (%)
Give bare numbers, in %.

Completed entries (count: 2):
CCCNC(=O)CS(=O)Cc1nc(-c2ccccc2C)oc1C (stereo unspecified); 94.2
Cc1ccc(-n2ncc3c(=O)[nH]c(SCC(=O)N4CCC(C)CC4)nc32)cc1C; 89

Each compound below has a reported value. Please supply its viability.
1. Cc1nn(-c2ccccc2)c(C)c1NC(=O)Cc1cccs1
2. O=C(O)Cc1ccc(NC(=O)C2CCCCC2C(=O)O)cc1 (stereo unspecified)
3. Cc1cc(Nc2cccc(C)c2C)n2ncnc2n1
4. COc1ccc(CCNC(=O)c2c(O)c3c([nH]c2=O)CCCC3)cc1
5. Cc1ccc(NC(=O)c2cnc3scc(C)n3c2=O)c(C)c1
6. CCOC(=O)NC(C(F)(F)F)(C(F)(F)F)P(=O)(c1ccccc1)c1ccccc1

95.2
95.5
95.1
97.1
106
95

Could you report viability for every entry in the following list?
1. CCN(CC)CCNC(=O)c1sc2nc(-c3ccccc3)cn2c1C
2. COc1ccc(S(=O)(=O)N2CC(C)N(S(=O)(=O)c3ccc(OC)cc3)CC2C)cc1 (stereo unspecified)
3. O=C(c1ccccc1)N1CCN(C2CC(=O)N(CCc3ccccc3)C2=O)CC1 (stereo unspecified)
4. O=C(O)C1(P(=O)(c2ccccc2)c2ccccc2)CCC1
5. COc1ccc(C(=O)NCCn2ccc3ccccc32)cc1OC
6. CN1C[N+]([O-])=C(c2ccccc2)C1(C)C
7. Nc1c(S(=O)(=O)c2ccccc2)c2nc3ccccc3nc2n1/N=C/c1ccco1
8. CCOc1ccc(C2c3c(oc4ccccc4c3=O)C(=O)N2CCCN2CCOCC2)cc1OCC (stereo unspecified)

1. 83.2
2. 93.2
3. 96.8
4. 99.6
5. 99.7
6. 98.7
7. 51.5
8. 102

Report viability for each item below.
1. CCCc1n[nH]c2c1C(=O)CC(C)(C)C2
2. CCn1c(CNC(=O)COC)nc2ccccc21
3. O=C(CSc1ncn[nH]1)Nc1nnc(-c2ccccc2)s1
4. Cc1ccccc1NC(=O)c1ocnc1C

1. 95.6
2. 105
3. 94.3
4. 101
